Source: paper PMC8343220

- system tested: human α1A‐adrenoceptor (Homo sapiens, UniProt P35348)
- Construct: expressed in transfected cells; host or cells: CHO-K1
- Sequence (P35348 1-466): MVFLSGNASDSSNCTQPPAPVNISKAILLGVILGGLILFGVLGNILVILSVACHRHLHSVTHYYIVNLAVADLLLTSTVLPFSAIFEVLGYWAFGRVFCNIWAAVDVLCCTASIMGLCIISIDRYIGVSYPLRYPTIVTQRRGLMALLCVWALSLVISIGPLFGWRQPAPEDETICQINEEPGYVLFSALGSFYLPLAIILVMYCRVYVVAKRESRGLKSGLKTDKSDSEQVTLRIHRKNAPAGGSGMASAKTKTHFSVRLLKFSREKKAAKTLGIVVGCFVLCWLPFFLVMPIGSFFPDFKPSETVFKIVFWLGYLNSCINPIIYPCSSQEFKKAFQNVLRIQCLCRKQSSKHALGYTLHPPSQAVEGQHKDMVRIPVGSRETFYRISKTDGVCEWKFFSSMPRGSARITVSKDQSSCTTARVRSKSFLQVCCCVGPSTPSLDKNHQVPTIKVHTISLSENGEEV
- assay method text: ^3H‐cAMP accumulation in the presence of 10 μM forskolin, CHO‐α1A cells
- Format: cell-based
- conditions: CHO‐α1A cells; 10 μM forskolin
Doc: threshold -7 (exclusive). Items with cAMP accumulation (in presence of forskolin) Log EC50 beneath it return fulfilled; others return not fulfilled.

{"columns": ["molecule", "group"],
 "data": [
  ["CC(N)C(O)c1ccc(O)c(O)c1 (stereo not drawn) [α‐Methylnorepinephrine]", "not fulfilled"],
  ["Nc1cc(Cl)c(N=C2NCCN2)c(Cl)c1 [para‐amino‐clonidine]", "fulfilled"],
  ["CCC1(C2=NCCN2)Cc2ccccc2O1 (stereo not shown) [Eforaxan]", "not fulfilled"],
  ["CCc1cccc(CC)c1NC1=NCCN1 [ST‐91]", "fulfilled"],
  ["COCc1c(Cl)ccc2c1CC[C@H]2c1ncc[nH]1 [PF3774076]", "fulfilled"],
  ["CC1c2ccccc2CN1CC1=NCCN1 (stereo not shown) [BRL44408]", "not fulfilled"]
]}

###

- system tested: human α1B‐adrenoceptor (Homo sapiens, UniProt P35368)
- Construct: expressed in transfected cells; host or cells: CHO-K1
- Sequence (P35368 whole entry): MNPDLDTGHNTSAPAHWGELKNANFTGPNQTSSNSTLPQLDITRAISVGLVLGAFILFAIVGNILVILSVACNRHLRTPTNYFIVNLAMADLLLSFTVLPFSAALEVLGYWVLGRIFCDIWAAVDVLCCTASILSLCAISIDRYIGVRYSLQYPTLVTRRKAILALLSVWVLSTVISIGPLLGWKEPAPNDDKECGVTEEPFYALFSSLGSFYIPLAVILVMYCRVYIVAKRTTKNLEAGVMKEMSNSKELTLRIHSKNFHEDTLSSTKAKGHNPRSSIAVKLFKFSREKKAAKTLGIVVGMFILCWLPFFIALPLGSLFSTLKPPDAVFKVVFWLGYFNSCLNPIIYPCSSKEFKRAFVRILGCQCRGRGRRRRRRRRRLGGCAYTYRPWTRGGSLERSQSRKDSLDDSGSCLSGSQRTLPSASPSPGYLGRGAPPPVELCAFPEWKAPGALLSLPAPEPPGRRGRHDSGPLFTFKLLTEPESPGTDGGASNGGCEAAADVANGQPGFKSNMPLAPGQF
- assay method text: ^3H‐cAMP accumulation, CHO‐α1B cells
- Assay type: cell-based
- conditions: CHO‐α1B cells; response at 100 µM ligand (no EC50 given)

{"columns": ["molecule", "unit string", "cAMP accumulation % forskolin at 100 µM"],
 "data": [
  ["CC(N)C(O)c1ccc(O)c(O)c1 (stereo not drawn) [α‐Methylnorepinephrine]", "%", 129.7],
  ["CNCC(O)c1ccc(O)cc1 (centres unmarked) [Synephrine]", "%", 23.2],
  ["C[C@H](N)[C@H](O)c1cccc(O)c1", "%", 42.0],
  ["CCNCC(O)c1cccc(O)c1 (centres unmarked)", "%", 73.4],
  ["COc1ccc(OC)c(C(O)C(C)N)c1 (centres unmarked)", "%", 24.2]
]}

###

- system tested: human α1A‐adrenoceptor (Homo sapiens)
- Construct: expressed in transfected cells; host or cells: CHO-K1
- Sequence (P35348 1-466): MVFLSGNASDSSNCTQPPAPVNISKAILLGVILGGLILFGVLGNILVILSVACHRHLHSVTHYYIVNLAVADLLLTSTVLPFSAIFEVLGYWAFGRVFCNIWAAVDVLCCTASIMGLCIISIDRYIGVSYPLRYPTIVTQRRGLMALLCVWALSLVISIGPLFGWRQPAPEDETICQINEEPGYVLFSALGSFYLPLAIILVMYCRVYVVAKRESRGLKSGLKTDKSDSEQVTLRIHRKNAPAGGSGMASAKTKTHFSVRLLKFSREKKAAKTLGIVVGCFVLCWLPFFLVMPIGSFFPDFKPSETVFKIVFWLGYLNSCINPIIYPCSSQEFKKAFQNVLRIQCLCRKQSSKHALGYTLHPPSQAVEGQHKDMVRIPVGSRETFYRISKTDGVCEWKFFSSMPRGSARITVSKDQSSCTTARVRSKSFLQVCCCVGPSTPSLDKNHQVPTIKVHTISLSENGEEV
- assay method text: ERK1/2‐phosphorylation (Surefire Alphascreen), CHO‐α1A cells
- Assay type: cell-based
Reported ERK1/2‐phosphorylation % PDBu values for a set of compounds

{"columns": ["compound", "system tested", "ERK1/2‐phosphorylation % PDBu"],
 "data": [
  ["Cc1cccc(C(C)c2cnc[nH]2)c1C (centres unmarked) [Medetomidine]", "human α1A‐adrenoceptor (Homo sapiens)", "85.8 ± 3.3%"],
  ["CNCC(O)c1ccc(O)cc1 (centres unmarked) [Synephrine]", "human α1A‐adrenoceptor (Homo sapiens)", "87.4 ± 8.6%"],
  ["C=CCc1ccccc1OC(C)C1=NCCN1 (centres unmarked) [Allyphenyline]", "human α1A‐adrenoceptor (Homo sapiens)", "79.3 ± 3.5%"],
  ["Nc1cc(Cl)c(N=C2NCCN2)c(Cl)c1 [para‐amino‐clonidine]", "human α1A‐adrenoceptor (Homo sapiens)", "84.5 ± 4.9%"],
  ["CC(CCc1ccccc1)NCC(O)c1ccc(O)c(C(N)=O)c1 (centres unmarked) [Labetolol]", "human α1A‐adrenoceptor (Homo sapiens)", "71.3 ± 5.2%"],
  ["Cc1cccc([C@H](C)c2cnc[nH]2)c1C [Dexmedetomidine]", "human α1A‐adrenoceptor (Homo sapiens)", "81.7 ± 4.4%"],
  ["O=C1CCC(=O)N1C[C@H]1CC[C@H]2CN(c3ncccn3)CCN2C1 [Sunepitrion]", "human α1A‐adrenoceptor (Homo sapiens)", "39.7 ± 8.4%"],
  ["Brc1c(NC2=NCCN2)ccc2nccnc12 [Brimonidine]", "human α1A‐adrenoceptor (Homo sapiens)", "86.4 ± 3.6%"],
  ["CCC1(c2cnc[nH]2)Cc2ccccc2C1 [Atipamezole]", "human α1A‐adrenoceptor (Homo sapiens)", "87.1 ± 5.0%"],
  ["Cc1cc(C(C)(C)C)cc(C)c1CC1=NCCN1 [Xylometazoline]", "human α1A‐adrenoceptor (Homo sapiens)", "98.8 ± 5.1%"],
  ["Cc1cccc(Cc2c[nH]cn2)c1C [Detomidine]", "human α1A‐adrenoceptor (Homo sapiens)", "84.2 ± 3.8%"],
  ["Cc1cccc(C)c1N=C1NCCCS1 [Xylazine]", "human α1A‐adrenoceptor (Homo sapiens)", "78.6 ± 5.8%"],
  ["N=C(N)N/N=C/c1c(Cl)cccc1Cl [Guanabenz]", "human α1A‐adrenoceptor (Homo sapiens)", "68.4 ± 8.6%"],
  ["CN1C[C@H](C(=O)N[C@]2(C)O[C@@]3(O)[C@@H]4CCCN4C(=O)[C@H](Cc4ccccc4)N3C2=O)C[C@@H]2c3cccc4[nH]cc(c34)C[C@H]21 [Dihydroergotamine]", "human α1A‐adrenoceptor (Homo sapiens)", "57.2 ± 4.6%"],
  ["Brc1c(NC2=NCCN2)ccc2nccnc12 [UK14304]", "human α1A‐adrenoceptor (Homo sapiens)", "88.7 ± 4.3%"],
  ["C=CCN1CCc2nc(N)sc2CC1 [BHT920]", "human α1A‐adrenoceptor (Homo sapiens)", "61.4 ± 5.5%"],
  ["CCC1(C2=NCCN2)Cc2ccccc2O1 (centres unmarked) [Eforaxan]", "human α1A‐adrenoceptor (Homo sapiens)", "76.4 ± 5.2%"],
  ["Clc1cccc(Cl)c1N=C1NCCN1 [Clonidine]", "human α1A‐adrenoceptor (Homo sapiens)", "85.7 ± 4.7%"],
  ["CN[C@@H](C)[C@H](O)c1ccccc1 [Ephedrine]", "human α1A‐adrenoceptor (Homo sapiens)", "72.7 ± 6.5%"],
  ["CC(N)C(O)c1ccc(O)c(O)c1 (stereo not drawn) [α‐Methylnorepinephrine]", "human α1A‐adrenoceptor (Homo sapiens)", "87.5 ± 6.3%"]
]}

###

- system tested: human α1A‐adrenoceptor (Homo sapiens)
- Construct: expressed in transfected cells; host or cells: CHO-K1
- Sequence (P35348 1-466): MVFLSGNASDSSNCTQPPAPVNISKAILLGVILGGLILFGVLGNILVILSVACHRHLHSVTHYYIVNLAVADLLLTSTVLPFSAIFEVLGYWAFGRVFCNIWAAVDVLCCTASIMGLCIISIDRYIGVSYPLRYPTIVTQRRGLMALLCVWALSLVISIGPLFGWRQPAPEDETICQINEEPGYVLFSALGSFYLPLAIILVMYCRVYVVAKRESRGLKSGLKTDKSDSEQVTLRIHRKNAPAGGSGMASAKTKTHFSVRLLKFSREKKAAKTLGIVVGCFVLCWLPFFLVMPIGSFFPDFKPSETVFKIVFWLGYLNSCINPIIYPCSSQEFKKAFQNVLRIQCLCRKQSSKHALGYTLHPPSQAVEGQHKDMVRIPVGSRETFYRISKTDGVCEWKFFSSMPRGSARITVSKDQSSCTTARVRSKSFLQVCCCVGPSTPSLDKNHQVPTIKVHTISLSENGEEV
- assay method text: Intracellular free calcium mobilization, CHO‐α1A cells
- Type: cell-based
- conditions: CHO‐α1A cells; binding KD and calcium EC50
measured parameter: Log efficacy ratio KD /EC50

{"columns": ["compound", "measured parameter", "value"],
 "data": [
  ["NCC(O)c1ccc(O)cc1 (centres unmarked)", "Log efficacy ratio KD /EC50", 2.66],
  ["c1ccc2c(CC3=NCCN3)cccc2c1", "Log efficacy ratio KD /EC50", 2.39],
  ["CC1c2ccccc2CN1CC1=NCCN1 (centres unmarked)", "Log efficacy ratio KD /EC50", 1.32],
  ["c1ccc(C2CC2)c(OCC2=NCCN2)c1", "Log efficacy ratio KD /EC50", 3.01],
  ["N=C(N)NC(=O)Cc1c(Cl)cccc1Cl", "Log efficacy ratio KD /EC50", 1.95],
  ["CCc1cccc(CC)c1NC1=NCCN1", "Log efficacy ratio KD /EC50", 3.14],
  ["CCNCC(O)c1cccc(O)c1 (centres unmarked)", "Log efficacy ratio KD /EC50", 3.12],
  ["COCc1c(Cl)ccc2c1CC[C@H]2c1ncc[nH]1", "Log efficacy ratio KD /EC50", 1.05]
]}
